The values you see were collected from PubChem BioAssay AID651789.

Procedure text: Acumen qHTS Assay for Inhibitors of the mTORC1 Signaling Pathway in WT MEF Cells: Hit Validation; note: nearly all actives have a fitted effect of over 60% in size
Measurement conditions: Acumen imaging; series mostly up to 37.3 µM
Inconclusive results are not listed. Activity calls are given as the source filed them. Calls come from the whole dose curve; as a rule, active = well fitted inhibition curve with a large enough effect; inconclusive = small, poorly fitted or top-dose-only effect; inactive = no such curve, though single readings can be large or run the other way.
Parameter call: string, one of t = active, f = inactive

Past entries and their recorded results:
• Cn1ccc2c(OCC(=O)Nc3ccc(OC(F)(F)F)cc3)cccc2c1=O = f
• Cc1ccc(CN2C(=O)C(=O)c3cc(Br)cc(C)c32)cc1 = f
• Cn1nnnc1SCCCNCc1ccccc1OCc1ccc(Cl)cc1 = f

Consider now this further molecule.
[in] Which outcome was entered for the molecule CCc1ccc(-c2nc(CSCC(=O)NCc3ccc(C)cc3)c(C)o2)cc1 in this test?
[out] f

---

Procedure text: Acumen qHTS Assay for Inhibitors of the mTORC1 Signaling Pathway in WT MEF Cells: Hit Validation; note: nearly all actives have a fitted effect of over 60% in size; note: potency is the fitted concentration of half-maximal effect
Measurement conditions: Acumen imaging; series mostly up to 37.3 µM
Text: The mammalian target of rapamycin (mTOR) is an intracellular serine/threonine kinase Aberrant regulation of mTOR signaling plays a causative role in a number of human diseases, including cancer, benign tumors such as lymphangioleiomyomatosis (LAM) and Tuberous Sclerosis Complex (TSC), and metabolic diseases such as diabetes and obesity. This project aims to identify inhibitors of ribosomal protein S6 (rpS6) phosphorylation. The phosphorylation of rpS6 is a key event downstream of mTOR activation. […]
Inconclusive results are not listed. Active and inactive are the calls of the source. The call rests on the fitted dose curve; in most records, active means well fitted inhibition curve with a large enough effect; inconclusive means small, poorly fitted or top-dose-only effect; inactive means no such curve, though single readings can be large or run the other way.
Metric: Potency

Recorded Potency, per entry:
- CCN1CCOC(=O)C1CC(=O)Nc1ccc(Br)cc1 (stereo not given): inactive
- CN(Cc1ccccc1)C(=O)CSc1c2c(nc3ccc(Cl)cc13)CCCC2: inactive
- CCC1CN(C(=O)NCc2ccc(F)cc2)c2cc(C)ccc2O1 (stereo not given): inactive
- CCn1c2ccccc2c2cc(CN3CCN(Cc4ccc(Cl)cc4)CC3)ccc21: inactive
- Cc1ccc(C)c(Cn2c3ccccc3c3cnn(CC(=O)NC(C)CCc4ccccc4)c(=O)c32)c1 (stereo not given): 18.5 µM (active)
- CCN(CC)CCn1c(=N)n(CCOc2ccccc2Cl)c2ccccc21: 9.27 µM (active)

[in] What value of Potency has been recorded for this entry: Cc1nn(CCCC(=O)NCc2cccc(Cl)c2)c(=O)c2c1sc1ccccc12
[out] inactive

[in] Fill in: Potency of COc1ccc2cc(CNc3ccccc3)c(=O)n(CC(=O)Nc3ccc(C)cc3C)c2c1 is ___
[out] inactive

[in] Report Potency for c1ccc(N2CCN(c3ncnc4[nH]ncc34)CC2)cc1 please.
[out] inactive

[in] // query Potency value for entry CCOC(=O)c1c(NC(=O)c2nc(S(C)(=O)=O)ncc2Cl)sc(C(C)=O)c1C
[out] 2.07 µM (active)

---

Procedure text: Acumen qHTS Assay for Inhibitors of the mTORC1 Signaling Pathway in WT MEF Cells: Hit Validation; note: nearly all actives have a fitted effect of over 60% in size; note: potency is the fitted concentration of half-maximal effect
Measurement conditions: Acumen imaging; series mostly up to 37.3 µM
Inconclusive results are not listed. Calls of active or inactive are those of the source. Calls follow the shape of the dose curve; as a rule, active = well fitted inhibition curve with a large enough effect; inconclusive = small, poorly fitted or top-dose-only effect; inactive = no such curve, though single readings can be large or run the other way.
Metric: Potency

* O=S(=O)(c1cccc2cnccc12)N1CCCNCC1 | inactive
* Cc1ccc(CNS(=O)(=O)c2cc(C(=O)Nc3cccc(C(F)(F)F)c3)ccc2F)cc1 | inactive
* CN(CCCNC(=O)c1cc2c(Cl)nc3ccccc3c2s1)Cc1ccccc1 | inactive
* Cc1ccc(CN(Cc2ccco2)C(=O)c2cccc(C)c2)cc1 | inactive
* CC(C)(C)c1ccc(C2NC(=O)c3n[nH]c(-c4cccs4)c32)cc1 (stereo unspecified) | inactive
* CCC(C(=O)N1CCN(c2cccc(C)c2C)CC1)n1nc(C)c2sc3ccccc3c2c1=O (stereo unspecified) | inactive
* FC(F)(F)c1cccc(Nc2c3c(nc4ccc(Cl)cc24)CCC3)c1 | 16500 nM (active)
* CC(C)N(C(=O)CSc1nc2ccc(Cl)cc2[nH]1)c1ccccc1 | inactive

Now take the following compound into account.
[in] So what does the record say about Potency for O=C(CCCn1ccc2cc(S(=O)(=O)N3CCCC3)ccc21)NCc1ccc(Cl)cc1 ?
[out] inactive

---

Procedure text: Acumen qHTS Assay for Inhibitors of the mTORC1 Signaling Pathway in WT MEF Cells: Hit Validation; note: nearly all actives have a fitted effect of over 60% in size; note: potency is the fitted concentration of half-maximal effect
Measurement conditions: Acumen imaging; series mostly up to 37.3 µM
Results filed as inconclusive are left out. The source made the active and inactive calls. Calls follow the shape of the dose curve; as a rule, active = well fitted inhibition curve with a large enough effect; inconclusive = small, poorly fitted or top-dose-only effect; inactive = no such curve, though single readings can be large or run the other way.
Metric: Potency

Examples with answers:
• COc1ccc(CC(=O)Nc2sc3c(c2C(=O)Nc2ccccc2)CCCCC3)cc1 = 13.1 µM (active)
• COc1ccc(OC)c(NC(=O)c2nc(S(=O)(=O)Cc3ccc(F)cc3)ncc2Cl)c1 = 3.29 µM (active)
• COc1ccc2c(CNCCc3cccs3)c(C(=O)O)n(Cc3ccc(F)cc3Cl)c2c1 = inactive
• Cn1nc(-c2ccc(OCC(=O)Nc3ccc(Cl)cc3)cc2)c2ccccc2c1=O = inactive
• CCCCn1c(=N)n(CCOc2ccccc2OC)c2ccccc21 = 11.7 µM (active)
• Cc1cc(C)c(NC(=O)C2CCN(c3nc4ccccc4n4cccc34)CC2)c(C)c1 = inactive

[in] Requested field: Potency. Item: CC(=O)N1CCCc2cc(S(=O)(=O)N(Cc3ccccc3)C(C)C)ccc21
[out] inactive

[in] What value of Potency has been recorded for this entry: COc1ccccc1-c1noc(CSc2nc3ccc(C)cc3[nH]2)n1
[out] inactive

[in] Given the entry CCCC(=O)OC1=CN(Cc2ccccc2)S(=O)(=O)c2ccccc21 , report its measured Potency.
[out] 3.69 µM (active)

[in] Which measured Potency value corresponds to Cc1ccc(C)c(NC(=O)Nc2cc3c(cc2N2CCCCC2)n(C)c(=O)n3C)c1 ?
[out] inactive

[in] Tell me the measured Potency of O=C(Cn1c(=O)c2ccccc2n(CC(=O)Nc2ccc(Cl)cc2)c1=O)NCCc1ccccc1 , please.
[out] 14.7 µM (active)

---

Procedure text: Acumen qHTS Assay for Inhibitors of the mTORC1 Signaling Pathway in WT MEF Cells: Hit Validation; note: nearly all actives have a fitted effect of over 60% in size
Measurement conditions: Acumen imaging; series mostly up to 37.3 µM
Records with an inconclusive call do not appear. Activity calls are given as the source filed them. The call rests on the fitted dose curve; in most records, active means well fitted inhibition curve with a large enough effect; inconclusive means small, poorly fitted or top-dose-only effect; inactive means no such curve, though single readings can be large or run the other way.
Hi! Could you answer with just one of these? active, inactive

The following compounds have reported results that may help.
• COc1ccc(-c2nc(C)c(CCNC(=O)c3ccccc3Br)s2)cc1OC = inactive
• COc1ccccc1CNC(=O)CCCn1c(=O)c2cccn2c2ccccc21 = inactive
• CCC1=Nc2cc(C(=O)NC3CCCC3)ccc2Sc2ccc(Br)cc21 = active
• Cc1ccc(S(=O)(=O)Nc2ccc3c(c2)c(C(=O)OC(C)C)c(C)n3S(=O)(=O)c2ccc(C)cc2)cc1 = inactive
• CCCCCCCCCCCCCCC[C@H](O)[C@@H](N)CO = inactive
• COc1ccc(-c2nc(S(=O)(=O)c3ccc(Cl)cc3)c(N3CCCCCC3)o2)cc1 = inactive

[in] Recorded test call requested for CCCC1=Nc2cc(C(=O)NCc3ccccc3)ccc2Sc2ccccc21
[out] active

[in] I'd appreciate the recorded outcome for CCc1ccc(OCC(=O)Nc2ccc3oc(-c4ccc(OC)cc4)nc3c2)cc1 from this test.
[out] inactive

[in] // outcome(item) with item = Cc1ccc2nc(/C(C#N)=C/c3ccc(-c4ccc(F)cc4F)o3)[nH]c2c1
[out] active

[in] State the result this test recorded for COc1cccc(-c2nnc3sc(CN4CCCCC4)cn23)c1 .
[out] active

---

Procedure text: Acumen qHTS Assay for Inhibitors of the mTORC1 Signaling Pathway in WT MEF Cells: Hit Validation; note: nearly all actives have a fitted effect of over 60% in size
Measurement conditions: Acumen imaging; series mostly up to 37.3 µM
Records with an inconclusive call do not appear. The source made the active and inactive calls. Calls follow the shape of the dose curve; as a rule, active = well fitted inhibition curve with a large enough effect; inconclusive = small, poorly fitted or top-dose-only effect; inactive = no such curve, though single readings can be large or run the other way.
// allowed return values: active, inactive

* CCNS(=O)(=O)c1cc(-c2nnc(Nc3cccc(C(F)(F)F)c3)c3ccccc23)ccc1C | inactive

[in] Hi team, can someone confirm the assay call for COc1ccccc1C1C=C(c2ccc(Cl)cc2)Nc2nc(-c3ccc(Cl)cc3)nn21 (stereo not given) ?
[out] inactive

[in] Please indicate how the test categorized Nc1nc(Nc2ccccc2F)sc1C(=O)c1ccc(Cl)cc1 .
[out] inactive

[in] What did this assay record as the result for Cc1cccc(CSc2cn(CC(=O)N3CCCCCC3)c3ccccc23)c1 ?
[out] inactive

[in] Please let me know the test result on file for COc1ccc(S(=O)(=O)NCCc2sc3nc(-c4ccc(C)cc4)nn3c2C)cc1F .
[out] inactive

[in] Which outcome was entered for the molecule CCc1ccc(S(=O)(=O)c2c(C(=O)c3ccc(C)c(C)c3)cnc3ccccc23)cc1 in this test?
[out] inactive

---

Procedure text: Acumen qHTS Assay for Inhibitors of the mTORC1 Signaling Pathway in WT MEF Cells: Hit Validation; note: nearly all actives have a fitted effect of over 60% in size; note: potency is the fitted concentration of half-maximal effect
Measurement conditions: Acumen imaging; series mostly up to 37.3 µM
Records with an inconclusive call do not appear. The source made the active and inactive calls. Calls follow the shape of the dose curve; as a rule, active = well fitted inhibition curve with a large enough effect; inconclusive = small, poorly fitted or top-dose-only effect; inactive = no such curve, though single readings can be large or run the other way.
Metric: Potency

Consider the worked cases shown below.
* CCN(CC)CCNC(=O)c1ccc(Cn2c(=O)c3cccn3c3cccnc32)cc1 | inactive
* CC(C)c1ccc(C2Sc3ccccc3NC3=C2C(=O)c2ccccc23)cc1 (stereo not given) | inactive
* COc1cccc(/C=C(\C#N)c2nc3ccc(C)cc3[nH]2)c1 | inactive
* Cc1cccc(CS(=O)(=O)c2ncc(Cl)c(C(=O)NCc3ccccc3)n2)c1 | 13100 nM (active)
* COCCCNC(=O)c1ccc(CSc2nc3cccnc3n2Cc2ccc(OC)cc2)cc1 | inactive
* CCCCS(=O)(=O)c1oc(-c2ccc(F)cc2)nc1S(=O)(=O)c1ccccc1 | 656 nM (active)
* Cc1ccc(-c2noc(CCC(=O)N(C)c3ccccc3F)n2)cc1 | inactive
* CCOc1cc(-c2nnc(SCC(=O)NCc3ccccc3)nc2-c2ccc(OC)c(OCC)c2)ccc1OC | 927 nM (active)
* CC(C)S(=O)(=O)c1oc(-c2cccs2)nc1S(=O)(=O)c1ccc(F)cc1 | 826 nM (active)

// switching to the query compound
[in] Data request, read-out Potency, for CCCN1C(=O)C(Cc2nc3ccccc3c(=O)n2CC)c2ccccc21 (stereo not given)
[out] inactive
